- ASSAYED TARGET: T1, 3×FLAG-IL-6 (human)
- T1 construct: it may hold the pre-pro-trypsin leader
- T1 sequence (chain, as listed by the source limits assumed): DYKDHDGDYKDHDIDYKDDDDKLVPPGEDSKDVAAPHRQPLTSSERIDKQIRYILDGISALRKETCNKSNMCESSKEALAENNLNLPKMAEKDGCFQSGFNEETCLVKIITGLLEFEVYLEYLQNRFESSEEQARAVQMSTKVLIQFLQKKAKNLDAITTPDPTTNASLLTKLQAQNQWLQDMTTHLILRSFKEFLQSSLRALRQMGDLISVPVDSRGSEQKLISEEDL
- MEASUREMENT PROTOCOL: SPR, 3×FLAG-IL-6 captured by anti-FLAG M2 on protein G, scFv as analyte (1-100 nM)
OBSERVABLE: koff (s⁻¹)
Numbers only here, please. The scale is s⁻¹.

[ask] For 28D2-C Aha (scFv, azidohomoalanine (Aha) in place of the single Met, at the C terminus) scFv: MAHHHHHHPPPPAAADIQLTQSPSFLSASVGDRVTITCQASEDLFSSLAWYQQKPGKAPKLLIYSASTLASGVPSRFSGSGSGTDFTLTISSLQPEDFATYYCLGLYYYLTPDPIYGFGGGTKVEIKGGGGSGGGGSGGGGSGGGGSEVQLVESGGGLVQPGGSLRLSCTVSGLSLSKNAIAWVRQAPGKGLEWVGIIYAGGATTYASWAKGRFTISRDNSKNTLYLQLNSLRAEDTAVYYCAREYAGDSYYTGYTQLDLWGQGTLVTVSSGM , write its koff.
[reply] 7.6e-05
